# Tested on: MS2 coat protein
# Assay overview: apparent KD of MS2 coat protein; higher = weaker reporter binding
# Run parameters: Eterna round: R107; input ligand: theophylline 20 uM
Measure: apparent KD of MS2 coat protein (nM)

Chain sequence	Measure	Unit label	Reported
CACGGACGAGUGGAUCACCCUUGUAAUAACCGAGGACCGGUACGGCCGCCACUCGAAAACCGUGACCUGUACGAAAAGUGCAGGA	apparent KD of MS2 coat protein	nM	148
CCCAGUUAUAUCAAAGGAAUUAUACUCGAAGGAGCGUCAUAGUAGGCAGGUAGGUCGCGAGACAUGAGGAUCACCCAUGUAGAGA [pxpmullin]	apparent KD of MS2 coat protein	nM	58.4
CCGUUUUAUGGCGACAUAGGGCGGACUGAAGGAGCGGUGAAUAAGCCAGGUAGGUCGCAGAGAUCCACAUGAGGAUCACCCAUGU [!0.aD]	apparent KD of MS2 coat protein	nM	62.2
AAAAGAGGUGGAAGGAGCGGGAGACAUGAGGAUCACCCAUGUGAAGUAACGAAAGGUACAGCCCAGGUAGGUCGCCAUGUCGAAA [qxqamullin]	apparent KD of MS2 coat protein	nM	73.5
AGAUUCGACACGGCCGCCACUCGUGACGGAUUUCCGAGUGUCGAACAUGAGGAUCACCCAUGUCCGAGGACCGGGUGUUGAGUCU [XTryp B #12]	apparent KD of MS2 coat protein	nM	43.8
GCAUCAUGAACGGCCGCCACUAAGGAAUGAGCGGCUCUUGCGAUACAUGAGGAUCACCCAUGUCUUAGGACCGGGUUCAUUGUCA [theeternabot_sameState_MS2_Trp_B_49]	apparent KD of MS2 coat protein	nM	343
CUCCUGGGAGCGGCCGCCACUGGAGGCCUUGCGCGACAUGAGGAUCACCCAUGUUGUCCCGGCCUCAGGACCGGGUUCGCGCGAG [Same State - Tryptophan B Attempt #1]	apparent KD of MS2 coat protein	nM	10.2
CACUUCAUGUGAGAUACCAGUGCCUUACAUGAGGAUCACCCAUGUCGUAAUGUGGAGAAGCACCCUUGGCAGCUCGCUUCGAGUG [Theo B SS t6]	apparent KD of MS2 coat protein	nM	91.6

* * *

The following sequences are listed with their measured apparent KD of MS2 coat protein values.
# Tested on: MS2 coat protein
# Assay overview: apparent KD of MS2 coat protein; designed switch direction (-1 OFF switch, 1 ON switch): -1; higher = weaker reporter binding
# Run parameters: Eterna round: R95; input ligand: none

Chain sequence	Unit label	apparent KD of MS2 coat protein
CUGGUCCGAGGAUAUAUUAAGUGAAACAUGAGGAUCACCCAUGUUAUUUGAUGGAUGUAAAUAGAAGGCGGACUAG [JL-ex5-3.13] (puzzle: Exclusion 5)	nM	49.1
CAUACUAAAGUCAGGAUAUGCGGUCGAAUACGGGCGUAGAAGGGACAUGAGGAUCACCCAUGUAGAUAGUAAAG [EX-4 Malc #19] (puzzle: Brourd's mod of Exclusion 4)	nM	15.7
GCCAGAGCAGGAUAUUCAUUAUAUCACAUGAGGAUCACCCAUGUCCAGCGAAAGCUGGAGGGAGAAGGGCUCUGGC [Fiskers Ex 5 - 24] (puzzle: Exclusion 5)	nM	140
CAUGAUCUUCGGAUCAUGUACAUGAGGAUCACCCAUGUUACGAGUUGAUCCUCAUACAAGCUUUUUGCUCGUCUUAU [Sensor v3 - Turn-off variant 1 - 26] (puzzle: Sensor v3, turn-off variant 1)	nM	20.8
AAGAAACAUGAGGAUCACCCAUGUGAGGAUAUGACCAAGAAAAGAAAAGAAAGAAGAAUCAGAAGGCACAAAGG [salish99-ex1_r3_051] (puzzle: Exclusion 1)	nM	70.2
GAUAGAGAGCAGGAUAUCUUGGGUAAGUGUUGUAGAGAAGGGCUCACAUGAGGAUCACCCAUGUGGUCCUAGAU [JL Dibiri mod 08] (puzzle: Exclusion 6)	nM	11.3
GAUUAUGCGAGCUUUAGGGACAUGAGGAUCACCCAUGUUCGUCUUAUUAGUCUAGAUGCACUGACAUACCUAAAUCU [JMF 78] (puzzle: Sensor v3, turn-off variant 1)	nM	14.4
AGGGAUAAAGGAUAUACAUGAGGAUCACCCAUGUUGAGGAAAGUUAGAUGAGGAGGAAGUAGAAGGUUAGACGA [JR_Exclu3_Sub087] (puzzle: Exclusion 3)	nM	42.5
AAGUACCGUCACGAUAGUGAUGGUACAACAAGUGAAUGUACAUGAGGAUCACCCAUGUCCUCUUUUGCUCGUCUUAU [Sensor 3 - 92] (puzzle: Sensor v3, turn-off variant 2)	nM	184
UCCUUACAUGAGGAUCACCCAUGUCAGGAUAUCUCCUCACUGCGCUUGCGCAGUGAAUAGAGAAGGGACGGGCU [JL ViennaUCT Aner mod 8] (puzzle: Exclusion 1)	nM	40.1
GAUUAUGCGAGCUUUAGGGACAUGAGGAUCACCCAUGUUCGUCUUAUUAAUCUGGGUGCACUGACAUACCUAAAUCU [JMF 92] (puzzle: Sensor v3, turn-off variant 1)	nM	132
GUAGCUUCGGCUACUACAAGCUUUUUGCUCGUCUUAUUAACAUGAGGAUCACCCAUGUCAAAGAGACCUCAUGUAUU [Sensor v3 - turn-off variant 2 - 5] (puzzle: Sensor v3, turn-off variant 2)	nM	462
GCUUGGCGAGGAUAUACAUGAGGAUCACCCAUGUGAGAAGAAUAAGUGAGGAAGAAAAGUAGAAGGCGCUGAGG [Mat - Exclusion 3 - Mod of Salish D62] (puzzle: Exclusion 3)	nM	37.6
UUUAAUUUUUUUUUUUUACAAGCUUUUUGCUCGUCUUAUACAUGAGGAUCACCCAUGUAGGUGAAGGAUAAAUUAUC [JMF 27] (puzzle: Sensor v3, turn-off variant 2)	nM	35.9
UCCAACCCUGUGAGGAUAUCGUCCAUUAUUUGUAACGAGAAGGCACAUGAGGAUCACCCAUGUUUUUUAUUUUU [JR_BMOE4_Sub080] (puzzle: Brourd's mod of Exclusion 4)	nM	22.5
AAGAAACGAGGAUAUACAGUUGAGUGAGAGAGGGAAGUGUGACAUGAGGAUCACCCAUGUAGAAGGCGUGAGAG [JR_Exclu2_Sub087] (puzzle: Exclusion 2)	nM	76.8
AAAUACAGGUAAAGAUUCUACAUGAGGAUCACCCAUGUGCUCGUCUUAUAAAGUACUAUCACGAAAGUGAUAGUACA [Sensor 3, v1 - 40] (puzzle: Sensor v3, turn-off variant 1)	nM	21.6
GUAGAGUCAGGAUAUACAGAAGAAGCAUGGAAAACAUGGAUACAUGAGGAUCACCCAUGUAGAAGGGACUCUAC [ChP 11-04-2015 #2] (puzzle: Exclusion 2)	nM	41.5
